- Test system: sciatic nerve
- Test Protocol: Sciatic nerve block in rats: duration of thermal nociceptive (sensory) block, modified hotplate test
- Type: in vivo, rat
- Condition Label: rat sciatic nerve injection 0.3 mL, dose conc 10 mM
Definition: the class of an entry is the range in low end = under 100 min, middle = from 100 min up to 200 min, high end = 200 min and over that contains its Block Duration (min) Sensory.

{"Compound": "CCC[N+]1(COC(C)=O)CCCC[C@H]1C(=O)Nc1c(C)cccc1C.[Br-] (stereo partly drawn) [Compound 10S]", "Class": "middle"}
{"Compound": "CCCC(=O)OC[N+]1(CCC)CCCC[C@H]1C(=O)Nc1c(C)cccc1C.[Cl-] (stereo in doubt) [Compound 11S]", "Class": "middle"}
{"Compound": "CCC[N@+]1(CC(=O)OC)CCCC[C@H]1C(=O)Nc1c(C)cccc1C.[Br-] (racemic) [4Sa + 4Sb]", "Class": "high end"}
{"Compound": "COC(=O)C[N@@+]1(C)CCCC[C@@H]1C(=O)Nc1c(C)cccc1C (racemic)", "Class": "high end"}
{"Compound": "CCCC[N@+]1(CC(=O)OC)CCCC[C@H]1C(=O)Nc1c(C)cccc1C (racemic)", "Class": "middle"}
{"Compound": "CCCCN1CCCCC1C(=O)Nc1c(C)cccc1C (stereo not drawn) [Bupivacaine, bupivacaine, reference compound]", "Class": "middle"}
{"Compound": "CCCC[N+]1(COC(C)=O)CCCCC1C(=O)Nc1c(C)cccc1C.[Br-] (stereo not drawn)", "Class": "middle"}
{"Compound": "CCC[N@@+]1(CC(=O)NC)CCCC[C@H]1C(=O)Nc1c(C)cccc1C [Compound 26Sa]", "Class": "middle"}
{"Compound": "COC(=O)C[N@@+]1(C)CCCC[C@H]1C(=O)Nc1c(C)cccc1C (racemic)", "Class": "low end"}
{"Compound": "CCCN1CCCC[C@H]1C(=O)Nc1c(C)cccc1C (single isomer, unassigned) [(S)-Ropivacaine, reference compound]", "Class": "middle"}
{"Compound": "CCC[N@@+]1(CC(=O)OC)CCCC[C@H]1C(=O)Nc1c(C)cccc1C.[Br-]", "Class": "low end"}

---

- Tested on: sciatic nerve
- Test Protocol: Sciatic nerve block in rats: duration of motor block, weight-bearing test
- Assay type: in vivo
- Condition Label: rat sciatic nerve injection 0.3 mL, dose conc 15 mM
Value Type: Block Duration (min) Motor

{"Compound": "CCCCN1CCCCC1C(=O)Nc1c(C)cccc1C (centres unmarked) [Bupivacaine, bupivacaine, reference compound]", "Value Type": "Block Duration (min) Motor", "Unit Name": "min", "Reported Value": 222}
{"Compound": "CCCC[N+]1(COC(C)=O)CCCCC1C(=O)Nc1c(C)cccc1C.[Br-] (centres unmarked) [Compound 9]", "Value Type": "Block Duration (min) Motor", "Unit Name": "min", "Reported Value": 85}
{"Compound": "CCC[N@+]1(CC(=O)OC)CCCC[C@H]1C(=O)Nc1c(C)cccc1C.[Br-] (racemic) [4Sa + 4Sb]", "Value Type": "Block Duration (min) Motor", "Unit Name": "min", "Reported Value": 69}
{"Compound": "CCCN1CCCC[C@H]1C(=O)Nc1c(C)cccc1C (single isomer, unassigned) [(S)-Ropivacaine, reference compound]", "Value Type": "Block Duration (min) Motor", "Unit Name": "min", "Reported Value": 210}
{"Compound": "CCC[N@@+]1(CC(=O)OC)CCCC[C@H]1C(=O)Nc1c(C)cccc1C.[Br-] [Compound 4Sb]", "Value Type": "Block Duration (min) Motor", "Unit Name": "min", "Reported Value": 0}

# credit: patent US12454509B2
